- protocol: Solid state stability at 25° C./60% RH and 40° C./75% RH for 1 week
- Format: physicochemical
- assaySetup: Initial
Structures can show the parent of a compound that is named as a salt.
Here, each record is paired with measured HPLC peak Area, RRT 1.12 data.
Return type: number; implicit unit %.

Some molecules with recorded HPLC peak Area, RRT 1.12:
{"molecule": "N#Cc1ccc(COc2cccc(C3CCN(Cc4nc5ccc(C(=O)O)cc5n4Cc4cncs4)CC3)n2)c(F)c1 [Potassium salt Type A]", "metric": "HPLC peak Area, RRT 1.12", "quantitativeReadout": 0.06}
{"molecule": "N#Cc1ccc(COc2cccc(C3CCN(Cc4nc5ccc(C(=O)O)cc5n4Cc4cncs4)CC3)n2)c(F)c1 [Tris salt Type C]", "metric": "HPLC peak Area, RRT 1.12", "quantitativeReadout": 0.06}
{"molecule": "N#Cc1ccc(COc2cccc(C3CCN(Cc4nc5ccc(C(=O)O)cc5n4Cc4cncs4)CC3)n2)c(F)c1 [Fumarate Type A]", "metric": "HPLC peak Area, RRT 1.12", "quantitativeReadout": 0.05}

Okay, now this molecule:
Given N#Cc1ccc(COc2cccc(C3CCN(Cc4nc5ccc(C(=O)O)cc5n4Cc4cncs4)CC3)n2)c(F)c1 [Meglumine salt Type A] , state its recorded HPLC peak Area, RRT 1.12.
0.05

---

- protocol: Approximate solubility in different solvents at RT
- Type: physicochemical
- assaySetup: MTBE, organic solvent or mixture, thermodynamic from solid, RT
- Description: For each experiment, approximately 2 mg of sample was added into a 3-mL glass vial. Corresponding solvents were then added stepwise (50/50/200/700/1000 μL) into the vials until the solids were dissolved visually or a total volume of 2 mL was reached. Solubility results summarized in Table 64 to Table 66 were used to guide the solvent selection in polymorph screening design.
metric: solubility

Given N#Cc1ccc(COc2cccc(C3CCN(Cc4nc5ccc(C(=O)O)cc5n4Cc4cncs4)CC3)n2)c(F)c1 [Freeform Type A] , state its recorded solubility.
< 1000 µg/mL

---

- protocol: Kinetic solubility in water and bio-relevant media (SGF, FaSSIF, FeSSIF) at 37° C.
- Format: physicochemical
- assaySetup: SGF, 37° C., 24 hrs; calculated by freeform
Structures can show the parent of a compound that is named as a salt.
metric: S: Solubility (µg/mL)
Return type: number; implicit unit µg/mL.

{"compound": "N#Cc1ccc(COc2cccc(C3CCN(Cc4nc5ccc(C(=O)O)cc5n4Cc4cncs4)CC3)n2)c(F)c1 [Tris salt Type C]", "quantitativeReadout": 170}

Given N#Cc1ccc(COc2cccc(C3CCN(Cc4nc5ccc(C(=O)O)cc5n4Cc4cncs4)CC3)n2)c(F)c1 [Potassium salt Type A] , state its recorded S: Solubility.
50

Given N#Cc1ccc(COc2cccc(C3CCN(Cc4nc5ccc(C(=O)O)cc5n4Cc4cncs4)CC3)n2)c(F)c1 [Freeform Type C] , state its recorded S: Solubility.
78

Given N#Cc1ccc(COc2cccc(C3CCN(Cc4nc5ccc(C(=O)O)cc5n4Cc4cncs4)CC3)n2)c(F)c1 [Meglumine salt Type A] , state its recorded S: Solubility.
290

---

- protocol: Kinetic solubility in water and bio-relevant media (SGF, FaSSIF, FeSSIF) at 37° C.
- Format: physicochemical
- assaySetup: SGF, 37° C., 1 hr; calculated by freeform
Where a name gives a salt, the structure may show the parent alone.
metric: S: Solubility (µg/mL)
Return type: number; implicit unit µg/mL.

Some compounds with recorded S: Solubility:
{"compound": "N#Cc1ccc(COc2cccc(C3CCN(Cc4nc5ccc(C(=O)O)cc5n4Cc4cncs4)CC3)n2)c(F)c1 [Potassium salt Type A]", "metric": "S: Solubility", "quantitativeReadout": 280}
{"compound": "N#Cc1ccc(COc2cccc(C3CCN(Cc4nc5ccc(C(=O)O)cc5n4Cc4cncs4)CC3)n2)c(F)c1 [Tris salt Type C]", "metric": "S: Solubility", "quantitativeReadout": 150}
{"compound": "N#Cc1ccc(COc2cccc(C3CCN(Cc4nc5ccc(C(=O)O)cc5n4Cc4cncs4)CC3)n2)c(F)c1 [Meglumine salt Type A]", "metric": "S: Solubility", "quantitativeReadout": 380}

Given N#Cc1ccc(COc2cccc(C3CCN(Cc4nc5ccc(C(=O)O)cc5n4Cc4cncs4)CC3)n2)c(F)c1 [Freeform Type C] , state its recorded S: Solubility.
83
